Values were extracted from patent US20260356856A1.

system: KRas-mediated phosphorylation of ERK in MKN1 cells (Homo sapiens, UniProt P01116)
Construct: pERK HTRF read-out
Sequence (P01116 1-188 isoform P01116-2): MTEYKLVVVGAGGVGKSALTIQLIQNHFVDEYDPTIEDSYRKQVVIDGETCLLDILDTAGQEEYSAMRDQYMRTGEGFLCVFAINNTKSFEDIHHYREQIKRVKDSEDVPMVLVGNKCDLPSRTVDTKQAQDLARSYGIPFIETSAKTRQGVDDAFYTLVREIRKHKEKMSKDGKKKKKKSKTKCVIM
protocol_text: Inhibition of KRas-mediated phosphorylation of ERK (HTRF), MKN1 cells
Format: cell-based
experimental_parameters: MKN1 cells (KRas WT); HTRF pERK; 3 h incubation
Items are presented alongside their recorded IC50.
recorded_endpoint: IC50 (nM)

[[record]]
compound = "Cc1ccn(C(=O)[C@H]2CCN(c3nc(OC[C@@]45CCCN4C[C@H](F)C5)nc4c(F)c(-c5ccc(F)c6sc(N)c(C#N)c56)c(Cl)cc34)C[C@H]2C)n1 [Example 185]"
readout_units = "nM"
modifier = "="
val = 65

[[record]]
compound = "CCc1c(F)ccc2cc(O)cc(-c3ncc4c(N5CCCCC(C(=O)N(C)C(C)=O)CC5)nc(OC[C@@]56CCCN5C[C@H](F)C6)nc4c3F)c12 (stereo partly shown) [Example 275]"
readout_units = "nM"
modifier = "="
val = 437

[[record]]
compound = "CCc1c(F)ccc2cc(O)cc(-c3ncc4c(N5CC(C(=O)n6ccc(C)n6)C6(CC6)C5)nc(OC[C@@]56CCCN5C[C@H](F)C6)nc4c3F)c12 (stereo partly shown) [Example 119]"
readout_units = "nM"
modifier = ">"
val = 10000

[[record]]
compound = "Cc1ccn(C(=O)[C@H]2C[C@H]2CNc2nc(OC[C@@]34CCCN3C[C@H](F)C4)nc3c(F)c(-c4ccc(F)c5sc(N)c(C#N)c45)c(Cl)cc23)n1 [Example 182]"
readout_units = "nM"
modifier = "="
val = 247

[[record]]
compound = "CCc1c(F)ccc2cc(O)cc(-c3ncc4c(N5CC[C@H]6[C@@H](C5)[C@H]6C(=O)n5ccc(C)n5)nc(OC[C@@]56CCCN5C[C@H](F)C6)nc4c3F)c12 (stereo in doubt) [Example 99]"
readout_units = "nM"
modifier = "="
val = 1050

[[record]]
compound = "CN(C)C(=O)N(C)C(=O)CCCN(C)c1nc(OC[C@@]23CCCN2C[C@H](F)C3)nc2c(F)c(-c3ccc(F)c4sc(N)c(C#N)c34)c(Cl)cc12 [Example 239]"
readout_units = "nM"
modifier = "="
val = 171

[[record]]
compound = "C#Cc1c(F)ccc2cc(O)cc(-c3ncc4c(N5CCC(C(=O)n6ccc(C)n6)CC5)nc(OC[C@@]56CCCN5C[C@H](F)C6)nc4c3F)c12 [Example 67]"
readout_units = "nM"
modifier = "="
val = 3290

[[record]]
compound = "CC(=O)N(C)C(=O)CCCN(C)c1cc(O[C@@H](C)[C@@H]2CCCN2C)nc(-c2cc([C@]3(C)CCCc4sc(N)c(C#N)c43)sn2)n1 [Example 319]"
readout_units = "nM"
modifier = ">"
val = 10000

[[record]]
compound = "N#Cc1c(N)sc2c(F)ccc(-c3c(Cl)cc4c(N5CCC(C(=O)Oc6ccc(F)cc6)CC5)nc(OC[C@@]56CCCN5C[C@H](F)C6)nc4c3F)c12 [Example 299]"
readout_units = "nM"
modifier = "="
val = 323

[[record]]
compound = "CCc1c(F)ccc2cc(O)cc(N3CCc4c(nc(OC[C@@]56CCCN5C[C@H](F)C6)nc4N4CCCC(C(=O)n5ccc(C)n5)CC4)C3)c12 (stereo partly shown) [Example 145]"
readout_units = "nM"
modifier = "="
val = 4010

[[record]]
compound = "CN(C(=O)CCCN(C)c1nc(OC[C@@]23CCCN2C[C@H](F)C3)nc2c(F)c(-c3ccc(F)c4sc(N)c(C#N)c34)c(Cl)cc12)C(=O)c1cnn(C)c1 [Example 306]"
readout_units = "nM"
modifier = "="
val = 134

[[record]]
compound = "CN(C(=O)C1CCN(c2nc(OC[C@@]34CCCN3C[C@H](F)C4)nc3c(F)c(-c4ccc(F)c5sc(N)c(C#N)c45)c(Cl)cc23)CC1)c1ccncn1 [Example 290]"
readout_units = "nM"
modifier = "="
val = 18

[[record]]
compound = "CN(CCCC(=O)N(C)c1ccccn1)c1nc(OC[C@@]23CCCN2C[C@H](F)C3)nc2c(F)c(-c3ccc(F)c4sc(N)c(C#N)c34)c(Cl)cc12 [Example 200]"
readout_units = "nM"
modifier = "="
val = 86

[[record]]
compound = "Cc1ccn(C(=O)[C@@H]2CCCN(c3nc(OC[C@@]45CCCN4C[C@H](F)C5)nc4c(F)c(-c5ccc(F)c6sc(N)c(C#N)c56)c(Cl)cc34)CC2)n1 (atropisomer, axis not shown; (aS)) [Example 172]"
readout_units = "nM"
modifier = "="
val = 199

[[record]]
compound = "CCc1c(F)ccc2cc(O)cc(-c3ncc4c(NC[C@@H]5C[C@H]5C(=O)N(C)C(C)=O)nc(OC[C@@]56CCCN5C[C@H](F)C6)nc4c3F)c12 [Example 281]"
readout_units = "nM"
modifier = "="
val = 41

[[record]]
compound = "CCc1c(F)ccc2cc(O)cc(-c3ncc4c(N5C[C@H]6C[C@H](C(=O)n7ccc(C)n7)C[C@H]6C5)nc(OC[C@@]56CCCN5C[C@H](F)C6)nc4c3F)c12 [Example 160]"
readout_units = "nM"
modifier = "="
val = 3690

[[record]]
compound = "C=Cc1ccn(C(=O)C2CCN(c3nc(OC[C@@]45CCCN4C[C@H](F)C5)nc4c(F)c(-c5cc(O)cc6ccc(F)c(CC)c56)ncc34)CC2)n1 [Example 66]"
readout_units = "nM"
modifier = "="
val = 5200

[[record]]
compound = "N#Cc1c(N)sc2c(F)ccc(-c3c(Cl)cc4c(N5CCC(C(=O)N6CCOCC6)CC5)nc(OC[C@@]56CCCN5C[C@H](F)C6)nc4c3F)c12 [Example 241]"
readout_units = "nM"
modifier = "="
val = 27

[[record]]
compound = "Cc1ccn(C(=O)C2CCCN(c3nc(OC[C@@]45CCCN4C/C(=C\\F)C5)nc4c(F)c(-c5ccc(F)c6sc(N)c(C#N)c56)c(Cl)cc34)CC2)n1 (stereo partly shown) [Example 175]"
readout_units = "nM"
modifier = "="
val = 177

[[record]]
compound = "Cc1ccn(C(=O)[C@@H]2C[C@H]2CNc2nc(OC[C@@]34CCCN3C[C@H](F)C4)nc3c(F)c(-c4ccc(F)c5sc(N)c(C#N)c45)c(Cl)cc23)n1 [Example 181]"
readout_units = "nM"
modifier = "="
val = 111

[[record]]
compound = "CCc1c(F)ccc2cc(O)cc(-c3ncc4c(N5C[C@H]6CC(C(=O)n7ccc(C)n7)C[C@H]6C5)nc(OC[C@@]56CCCN5C[C@H](F)C6)nc4c3F)c12 (stereo partly shown) [Example 116]"
readout_units = "nM"
modifier = "="
val = 4440

[[record]]
compound = "Cc1ccn(C(=O)CCN(C)c2cc(O[C@@H](C)[C@@H]3CCCN3C)nc(-c3noc([C@]4(C)CCCc5sc(N)c(C#N)c54)n3)n2)n1 [Example 320]"
readout_units = "nM"
modifier = ">"
val = 10000


----------
Items are presented alongside their recorded IC50.
system: KRas-mediated phosphorylation of ERK in A549 cells (Homo sapiens, UniProt P01116, G12S)
Construct: pERK HTRF read-out
Sequence (P01116 1-188 isoform P01116-2 G12S): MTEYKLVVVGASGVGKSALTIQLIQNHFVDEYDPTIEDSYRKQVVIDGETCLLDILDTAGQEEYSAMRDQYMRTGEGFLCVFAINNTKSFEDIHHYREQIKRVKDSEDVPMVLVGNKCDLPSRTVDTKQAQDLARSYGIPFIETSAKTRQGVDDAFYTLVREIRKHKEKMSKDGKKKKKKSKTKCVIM
protocol_text: Inhibition of KRas-mediated phosphorylation of ERK (HTRF), A549 cells
Format: cell-based
experimental_parameters: HTRF pERK, 3 h incubation
recorded_endpoint: IC50 (nM)

[[record]]
molecule = "CCc1c(F)ccc2cc(O)cc(-c3ncc4c(N5CCCC(C(=O)n6ccc(C)n6)C5)nc(OC[C@@]56CCCN5C[C@H](F)C6)nc4c3F)c12 (stereo partly drawn) [Example 65]"
system = "KRas-mediated phosphorylation of ERK in A549 cells (Homo sapiens, UniProt P01116, G12S)"
readout_units = "nM"
modifier = ">"
val = 10000

[[record]]
molecule = "CCc1c(F)ccc2cc(O)cc(-c3ncc4c(N5CCCCC(C(=O)n6ccc(C)n6)C5)nc(OC[C@@]56CCCN5C[C@H](F)C6)nc4c3F)c12 (stereo partly drawn) [Example 68]"
system = "KRas-mediated phosphorylation of ERK in A549 cells (Homo sapiens, UniProt P01116, G12S)"
readout_units = "nM"
modifier = "="
val = 77

[[record]]
molecule = "CCc1c(F)ccc2cc(O)cc(-c3ncc4c(N5C[C@H]6C[C@@H](C(=O)n7ccc(C)n7)[C@H]6C5)nc(OC[C@@]56CCCN5C[C@H](F)C6)nc4c3F)c12 [Example 210]"
system = "KRas-mediated phosphorylation of ERK in A549 cells (Homo sapiens, UniProt P01116, G12S)"
readout_units = "nM"
modifier = "="
val = 741


----------
Items are presented alongside their recorded IC50.
system: KRas G12C (Homo sapiens, UniProt P01116, G12C)
Construct: Biotinylated KRas (corresponding to amino acids 1-169, produced at Accelegan Inc.); biotin (biotinylated); purchased Accelegan Inc
Sequence (P01116 1-169 isoform P01116-2 G12C): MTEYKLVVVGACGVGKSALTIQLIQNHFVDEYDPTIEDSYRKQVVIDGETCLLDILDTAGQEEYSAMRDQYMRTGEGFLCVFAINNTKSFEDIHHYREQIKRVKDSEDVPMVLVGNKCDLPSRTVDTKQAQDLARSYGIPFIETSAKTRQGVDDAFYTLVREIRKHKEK
protocol_text: KRas binding assay, TR-FRET displacement of Cy5 labelled tracer
experimental_parameters: 60-minute incubation at room temperature, 1% DMSO, pH 7.5
Procedure: This Example illustrates that exemplary compounds of the present invention bind to KRas and are capable of displacing a labeled tracer ligand occupying the KRas binding site. […] The ability of a compound to bind to KRas was measured using a TR-FRET displacement assay. […] After a 60-minute incubation at room temperature, the reaction was measured using a BMG LABTECH CLARIO star Plus via TR-FRET. […]
recorded_endpoint: IC50 (nM)

[[record]]
compound = "CCc1c(F)ccc2cc(O)cc(-c3ncc4c(N(C)CCN(C)C(=O)n5cncn5)nc(OC[C@@]56CCCN5C[C@H](F)C6)nc4c3F)c12 [Example 223]"
system = "KRas G12C (Homo sapiens, UniProt P01116, G12C)"
readout_units = "nM"
val = 42

[[record]]
compound = "CCc1c(F)ccc2cc(O)cc(-c3ncc4c(N5CC6CCC(C5)C6C(=O)n5cccn5)nc(OC[C@@]56CCCN5C[C@H](F)C6)nc4c3F)c12 (stereo partly drawn) [Example 59]"
system = "KRas G12C (Homo sapiens, UniProt P01116, G12C)"
readout_units = "nM"
val = 8

[[record]]
compound = "CCc1c(F)ccc2cc(O)cc(-c3ncc4c(N5CCCN(C(=O)n6ccc(C)n6)CC5)nc(OC[C@@]56CCCN5C[C@H](F)C6)nc4c3F)c12 [Example 69]"
system = "KRas G12C (Homo sapiens, UniProt P01116, G12C)"
readout_units = "nM"
val = 79

